# Assayed target: human secretin receptor (hSCTR) (human, UniProt P47872 23-440)
# Sequence (P47872 23-440): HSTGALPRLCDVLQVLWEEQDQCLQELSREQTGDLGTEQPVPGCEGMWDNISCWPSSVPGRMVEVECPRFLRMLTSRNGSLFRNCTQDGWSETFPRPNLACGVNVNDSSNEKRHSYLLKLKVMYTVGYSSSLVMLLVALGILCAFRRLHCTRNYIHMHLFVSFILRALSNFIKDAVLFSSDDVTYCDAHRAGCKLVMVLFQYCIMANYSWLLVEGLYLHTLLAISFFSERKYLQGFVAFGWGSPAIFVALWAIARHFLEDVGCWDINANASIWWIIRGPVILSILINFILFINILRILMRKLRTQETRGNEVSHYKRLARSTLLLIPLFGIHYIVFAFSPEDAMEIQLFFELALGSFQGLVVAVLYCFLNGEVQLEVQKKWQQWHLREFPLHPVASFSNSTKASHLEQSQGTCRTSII
# Method description: cell-based or functional assay
Numbered stars: 1 amine (or outer) side, 2 acyl side, 3 side chain; on linkers, the order of the positions; unused ones are H or OH. Square brackets hold non-standard residues; d marks the D form. Side chains are listed from the residue outwards. Ends that are not written are not given here. * marks the point of attachment. C20 diacid = O=C(O)CCCCCCCCCCCCCCCCCCC(=O)*; γGlu = O=C(O)[C@H](CCC(=O)[*:2])N[*:1]; AEEA = NCCOCCOCC(=O)O; Aib = CC(C)(N)C(=O)O
Metric: hSCTR EC50 nM (purified peptide) (nM)
Response body: numeric value in nM, unit text excluded.

Some solved cases for reference:
- Binder: "H[Aib]EGTFTSDVSRLLEEA[Aib]LQRFLEK([AEEA-AEEA-γGlu-C20 diacid])LVEAA-NH2 [SEQ ID NO: 212]"
  Metric: "hSCTR EC50 nM (purified peptide)"
  Scale unit: "nM"
  Recorded result: 60
- Binder: "H[Aib]EGTFTSDVSYLK([AEEA-AEEA-γGlu-C20 diacid])EEA[Aib]LQRFLEHLV-NH2 (also: table footnote: C20DA or C18DA) [SEQ ID NO: 203]"
  Metric: "hSCTR EC50 nM (purified peptide)"
  Scale unit: "nM"
  Recorded result: 190

So for H[Aib]EGTFTSDVSELK([AEEA-AEEA-γGlu-C20 diacid])EEA[Aib]LQRFLEHLVEAA-NH2 [SEQ ID NO: 210] , the logged hSCTR EC50 nM (purified peptide) turned out to be 190

Input H[Aib]EGTFTSDVSRLK([AEEA-AEEA-γGlu-C20 diacid])EEA[Aib]LQRFLEHLVEAA-NH2 [SEQ ID NO: 208] . Output hSCTR EC50 nM (purified peptide): 24

Sure, the documented hSCTR EC50 nM (purified peptide) for H[Aib]EGTFTSDVSELK([AEEA-AEEA-γGlu-C20 diacid])EEA[Aib]LQRFLEHLV-NH2 [SEQ ID NO: 168] is 100
